Overview of reported activity at 30 min across a group of compounds:
- Tested on: UGT2B (heading: UGT2B4)
- Experimental protocol: p-nitrophenol glucuronidation activity in possum liver microsomes
- Format: biochemical, possum (Trichosurus vulpecula)
- Experimental conditions: possum (Trichosurus vulpecula), liver microsomes, pH 7.4, probe p-nitrophenol (0.5 mM final, from 50 µL of 5 mM in 500 µL), compound at estimated IC50, read-out: % of control (UGT2B4 catalytic activity at IC50)

Compound	activity at 30 min [%]
CC(=O)O[C@H](CC=C(C)C)C1=CC(=O)c2c(O)ccc(O)c2C1=O	96
CCC(C)n1ncn(-c2ccc(N3CCN(c4ccc(OCC5COC(Cn6cncn6)(c6ccc(Cl)cc6Cl)O5)cc4)CC3)cc2)c1=O (centres unmarked)	102
Nc1ccc(S(=O)(=O)Nc2ccnn2-c2ccccc2)cc1	105
C[C@@H]1CC[C@H]2C(C)(C)[C@H]3C[C@@]12CC[C@@]3(C)O	93
CC(C)=CCC[C@](C)(O[C@@H]1O[C@H](CO)[C@@H](O)[C@H](O)[C@H]1O)[C@H]1CC[C@]2(C)[C@@H]1[C@H](O)C[C@@H]1[C@@]3(C)CC[C@H](O)C(C)(C)[C@@H]3[C@@H](O)C[C@]12C [Ginsenoside F1]	100

---

- System: CYP3A
- Experimental protocol: CYP3A catalytic activity (erythromycin N-demethylation) in possum liver microsomes
- Experimental conditions: possum liver microsomes; initial screen n=1; compounds without reported IC50 at 1 µM
Readout label: Percent control catalytic activity at estimated IC50 (percent control)

Molecule	Units text	Value observed
CC[C@@H]([C@H](C)O)n1ncn(-c2ccc(N3CCN(c4ccc(OC[C@@H]5CO[C@@](Cn6cncn6)(c6ccc(F)cc6F)C5)cc4)CC3)cc2)c1=O [Posaconazole]	percent control	93
CC(C)(C)C(O)/C(=C\c1ccc(Cl)cc1)n1cncn1 (stereo not shown) [Uniconazole]	percent control	82
COc1ccc(/C=C/c2cc(O)cc(O)c2)cc1O [Rhapontigenin]	percent control	103
O=c1cc(-c2ccccc2)oc2cc(O)c(O)c(O)c12 [Baicalein]	percent control	102

---

- System: UGT2B (heading: UGT2B4)
- Experimental protocol: p-nitrophenol glucuronidation activity in pooled human liver microsomes
- Experimental conditions: human, pooled human liver microsomes (50 donors), pH 7.4, probe p-nitrophenol (0.5 mM final, from 50 µL of 5 mM in 500 µL)
Overview of reported activity at 30 min across a group of molecules:

Molecule	activity at 30 min
O=C(/C=C/C=C/c1ccc2c(c1)OCO2)N1CCCCC1	94%
C[C@@H]1CC[C@H]2C(C)(C)[C@H]3C[C@@]12CC[C@@]3(C)O	98%
CC(C)c1nc(CN(C)C(=O)N[C@@H](CCN2CCOCC2)C(=O)N[C@H](CC[C@H](Cc2ccccc2)NC(=O)OCc2cncs2)Cc2ccccc2)cs1 [Cobicistat]	110%
OC(Cn1cncn1)(Cn1cncn1)c1ccc(F)cc1F	112%
CCC(C)n1ncn(-c2ccc(N3CCN(c4ccc(OCC5COC(Cn6cncn6)(c6ccc(Cl)cc6Cl)O5)cc4)CC3)cc2)c1=O (centres unmarked)	95%

---

- Tested on: UGT2B (heading: UGT2B4)
- Experimental protocol: p-nitrophenol glucuronidation activity in mouse liver microsomes
- Experimental conditions: BALB/c, mouse, pH 7.4

Compound	activity at 30 min
CC[C@H]1OC(=O)[C@H](C)[C@@H](O[C@H]2C[C@@](C)(OC)[C@@H](O)[C@H](C)O2)[C@H](C)[C@@H](O[C@@H]2O[C@H](C)C[C@H](N(C)C)[C@H]2O)[C@](C)(OC)C[C@@H](C)C(=O)[C@H](C)[C@@H](O)[C@]1(C)O [Clarithromycin]	120%
C[C@@H]1CC[C@H]2C(C)(C)[C@H]3C[C@@]12CC[C@@]3(C)O [Cedrol]	84%
CCC(C)n1ncn(-c2ccc(N3CCN(c4ccc(OCC5COC(Cn6cncn6)(c6ccc(Cl)cc6Cl)O5)cc4)CC3)cc2)c1=O (stereo not shown) [Itraconazole]	125%
OC(Cn1cncn1)(Cn1cncn1)c1ccc(F)cc1F [Fluconazole]	81%

---

Overview of reported activity across a group of compounds:
- System: UGT2B (heading: UGT2B4)
- Experimental protocol: in vitro
- Experimental conditions: human, pH 7.4
Readout label: activity

Compound	Readout label	Value observed
CC(C)=CCC[C@](C)(O[C@@H]1O[C@H](CO)[C@@H](O)[C@H](O)[C@H]1O)[C@H]1CC[C@]2(C)[C@@H]1[C@H](O)C[C@@H]1[C@@]3(C)CC[C@H](O)C(C)(C)[C@@H]3[C@@H](O)C[C@]12C [Ginsenoside F1]	activity	101%
Nc1ccc(S(=O)(=O)Nc2ccnn2-c2ccccc2)cc1	activity	102%
CC(=O)O[C@H](CC=C(C)C)C1=CC(=O)c2c(O)ccc(O)c2C1=O	activity	98%
O=c1cc(-c2ccccc2)oc2cc(O)c(O)c(O)c12	activity	97%

---

- Test system: UGT2B
- Experimental protocol: p-nitrophenol glucuronidation activity in mouse liver microsomes
Overview of reported UGT2B4 catalytic activity at 2-fold IC50 across a group of compounds:
Readout label: UGT2B4 catalytic activity at 2-fold IC50 (µmol/mg/min)

Compound	Target under test	Readout label	Value observed
CCC(C)n1ncn(-c2ccc(N3CCN(c4ccc(OCC5COC(Cn6cncn6)(c6ccc(Cl)cc6Cl)O5)cc4)CC3)cc2)c1=O (stereo not shown) [Itraconazole]	UGT2B	UGT2B4 catalytic activity at 2-fold IC50	1.99
Nc1ccc(S(=O)(=O)Nc2ccnn2-c2ccccc2)cc1 [Sulfaphenazole]	UGT2B	UGT2B4 catalytic activity at 2-fold IC50	2.27

---

- System: CYP3A
- Experimental protocol: CYP3A catalytic activity (erythromycin N-demethylation) in possum liver microsomes
- Experimental conditions: possum liver microsomes; initial screen n=1; compounds without reported IC50 at 1 µM
Kindly return T if reported Percent control catalytic activity at estimated IC50 is no lower than 90 percent control; return F if it is lower.

Molecule	Target under test	Cat
O=C(O)c1ccc(-n2nc(-c3ccccc3O)nc2-c2ccccc2O)cc1 [Deferasirox]	CYP3A	T
c1ccc2[nH]c(-c3cscn3)nc2c1 [Thiabendazole]	CYP3A	T
C=C[C@@H]1C2=CCOC(=O)C2=CO[C@H]1O[C@@H]1O[C@H](CO)[C@@H](O)[C@H](O)[C@H]1O [Gentiopicroside]	CYP3A	T
O=C1C[C@@H](c2ccc(O)cc2)Oc2cc(O)cc(O)c21 [Naringenin]	CYP3A	F
CC(C)(C)C(O)/C=C/c1ccc2c(c1)OCO2 (centres unmarked) [Stiripentol]	CYP3A	T

---

- System: CYP3A
- Experimental protocol: CYP3A catalytic activity (erythromycin N-demethylation) in mouse liver microsomes
- Experimental conditions: mouse; compound at estimated 2-fold IC50 (5 µM where none reported)

Compound	Catalytic activity at 2-fold IC50 [nmol/mg/min]
C[C@]12CC[C@H](O)CC1=CC[C@@H]1[C@@H]2CC[C@]2(C)C(n3cnc4ccccc43)=CC[C@@H]12 [Galeterone]	0.63
CC(=O)c1ccccc1O [2'-Hydroxyacetophenone]	0.35
C[C@@H]1O[C@@H](O[C@H]2[C@H](Oc3cc(O)c(C(=O)CCc4ccc(O)cc4)c(O)c3)O[C@H](CO)[C@@H](O)[C@@H]2O)[C@H](O)[C@H](O)[C@H]1O [Naringin Dihydrochalcone]	0.54
O=c1cc(-c2ccccc2)oc2cc(O)ccc12 [7-Hydroxyflavone]	0.40
C/C1=C/CC[C@H](C)C(=O)C[C@@H](C(C)C)C(=O)C1 [Curdione]	0.38

---

- Test system: CYP3A
- Experimental protocol: CYP3A catalytic activity (erythromycin N-demethylation) in possum liver microsomes
- Experimental conditions: possum liver microsomes; initial screen n=1; compounds without reported IC50 at 5 µM
Readout label: Percent control catalytic activity at estimated 2-fold IC50 (percent control)

Compound	Value observed
O=C([O-])C(O)Cc1ccc(O)c(O)c1.[Na+] (stereo not shown) [Sodium Danshensu]	118
CC(=O)O[C@H](CC=C(C)C)C1=CC(=O)c2c(O)ccc(O)c2C1=O	112
Cl.O=C(O)/C=C/c1ccc(Cn2ccnc2)cc1 [Ozagrel HCl]	95
CC(=O)c1ccccc1O [2'-Hydroxyacetophenone]	105
CCC(C)n1ncn(-c2ccc(N3CCN(c4ccc(OCC5COC(Cn6cncn6)(c6ccc(Cl)cc6Cl)O5)cc4)CC3)cc2)c1=O (stereo not shown)	120
O=c1cc(-c2ccc(O)cc2)oc2cc(O)cc(O)c12	121
O=C1c2ccccc2C(=O)c2c1ccc(O)c2O	77
C=CCSCC=C [Diallyl sulfide]	96
c1ccc2[nH]c(-c3cscn3)nc2c1	92
C[C@@H]1CC[C@H]2C(C)(C)[C@H]3C[C@@]12CC[C@@]3(C)O	99
O=C(O)/C=C/c1ccc(Cn2ccnc2)cc1	109
O=C1c2ccc(O)cc2C(=O)c2ccc(O)cc21 [2,6-Dihydroxyanthraquinone]	102
C=C[C@@H]1C2=CCOC(=O)C2=CO[C@H]1O[C@@H]1O[C@H](CO)[C@@H](O)[C@H](O)[C@H]1O [Gentiopicroside]	83
COc1cc2c(=O)c3c(O)c([C@@H]4O[C@H](CO[C@@H]5OC[C@](O)(CO)[C@H]5O)[C@@H](O)[C@H](O)[C@H]4O)c(O)cc3oc2cc1O	108
COc1ccc(/C=C/c2cc(O)cc(O)c2)cc1O	103
CC[C@@H]([C@H](C)O)n1ncn(-c2ccc(N3CCN(c4ccc(OC[C@@H]5CO[C@@](Cn6cncn6)(c6ccc(F)cc6F)C5)cc4)CC3)cc2)c1=O	92
CC(C)(C)C(O)/C=C/c1ccc2c(c1)OCO2 (stereo not shown)	105
Nc1ccc(S(=O)(=O)Nc2ccnn2-c2ccccc2)cc1	84
O=c1c(O)c(-c2ccccc2)oc2cc(O)cc(O)c12	103
